Let's go through some AC50 measurements on Muscarinic acetylcholine receptor M3 (Homo sapiens, UniProt P20309) together.
Sequence (P20309 whole entry): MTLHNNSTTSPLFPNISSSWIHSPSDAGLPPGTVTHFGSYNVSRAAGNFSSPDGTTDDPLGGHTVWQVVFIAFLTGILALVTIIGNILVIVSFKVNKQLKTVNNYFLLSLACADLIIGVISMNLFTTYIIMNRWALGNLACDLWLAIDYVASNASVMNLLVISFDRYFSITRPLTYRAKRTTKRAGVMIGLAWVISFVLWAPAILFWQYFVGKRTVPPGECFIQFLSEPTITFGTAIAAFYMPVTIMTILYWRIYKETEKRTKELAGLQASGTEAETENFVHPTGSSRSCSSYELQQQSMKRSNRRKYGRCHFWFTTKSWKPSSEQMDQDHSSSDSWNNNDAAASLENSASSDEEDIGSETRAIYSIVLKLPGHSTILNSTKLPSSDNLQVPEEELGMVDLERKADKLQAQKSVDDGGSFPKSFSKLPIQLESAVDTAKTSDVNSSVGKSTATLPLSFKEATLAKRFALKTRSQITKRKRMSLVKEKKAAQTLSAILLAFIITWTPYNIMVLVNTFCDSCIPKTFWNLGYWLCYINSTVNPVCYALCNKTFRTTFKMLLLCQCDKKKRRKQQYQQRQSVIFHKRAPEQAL

INPUT: Recorded AC50 of CN(C)CCC=C1c2ccccc2C(C)(C)c2ccccc21 , please.
OUTPUT: 0.38 µM

INPUT: Recorded AC50 of Fc1ccc(C(c2ccccc2)(c2ccccc2F)n2ccnc2)cc1 (centres undefined) [FLUTRIMAZOLE] , please.
OUTPUT: > 30 µM

INPUT: Recorded AC50 of C[C@H](CSC(=O)c1ccccc1)C(=O)N1C[C@@H](Sc2ccccc2)C[C@H]1C(=O)O [ZOFENOPRIL] , please.
OUTPUT: > 30 µM

INPUT: Recorded AC50 of COc1ccccc1OCC(O)CN1CCN(CC(=O)Nc2c(C)cccc2C)CC1 (centres undefined) [RANOLAZINE] , please.
OUTPUT: > 30 µM

INPUT: Recorded AC50 of CN1CCN(C2=Nc3ccccc3Sc3ccc(Cl)cc32)CC1 [CLOTHIAPINE] , please.
OUTPUT: 2 µM

INPUT: Recorded AC50 of CCCC(=O)O[C@]1(C(=O)CO)CC[C@H]2[C@@H]3CCC4=CC(=O)CC[C@]4(C)[C@H]3[C@@H](O)C[C@@]21C [HYDROCORTISONE BUTYRATE] , please.
OUTPUT: > 30 µM

INPUT: Recorded AC50 of CCCCc1ncc(/C=C(\Cc2cccs2)C(=O)O)n1Cc1ccc(C(=O)O)cc1 [EPROSARTAN] , please.
OUTPUT: > 10 µM

INPUT: Recorded AC50 of CN1C(=O)CCS(=O)(=O)C1c1ccc(Cl)cc1 (centres undefined) [CHLORMEZANONE] , please.
OUTPUT: > 30 µM

INPUT: Recorded AC50 of Clc1ccc2nsnc2c1NC1=NCCN1 [TIZANIDINE] , please.
OUTPUT: > 10 µM

----------
Exercise: state measured AC50 for each of the compounds provided.
# System: Alpha-2C adrenergic receptor (Homo sapiens); note: assay procedure not described here
# Sequence (P18825 whole entry): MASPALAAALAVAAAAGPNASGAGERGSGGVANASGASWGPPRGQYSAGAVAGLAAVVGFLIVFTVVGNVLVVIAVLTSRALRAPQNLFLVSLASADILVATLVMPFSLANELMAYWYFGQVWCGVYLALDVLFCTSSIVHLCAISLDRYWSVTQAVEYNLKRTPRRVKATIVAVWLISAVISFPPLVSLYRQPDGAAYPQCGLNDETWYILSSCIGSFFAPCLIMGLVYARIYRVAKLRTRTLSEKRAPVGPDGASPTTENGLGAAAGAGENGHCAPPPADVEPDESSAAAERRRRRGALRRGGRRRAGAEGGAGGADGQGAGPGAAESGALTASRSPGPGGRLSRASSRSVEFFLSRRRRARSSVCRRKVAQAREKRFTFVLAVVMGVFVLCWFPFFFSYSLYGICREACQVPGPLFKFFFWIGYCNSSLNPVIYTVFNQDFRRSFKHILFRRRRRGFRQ
# Format: functional

INPUT: Recorded AC50 of CNC1Cc2ccccc2N(C)c2ccccc21 (stereo not drawn) , please.
OUTPUT: 26 µM

INPUT: Recorded AC50 of NCC(CC(=O)O)c1ccc(Cl)cc1 (stereo not drawn) , please.
OUTPUT: > 30 µM

INPUT: Recorded AC50 of COC(=O)C1=C(C)NC(C)=C(C(=O)OC(C)(C)CN(C)CCC(c2ccccc2)c2ccccc2)C1c1cccc([N+](=O)[O-])c1 (stereo not drawn) , please.
OUTPUT: > 30 µM

INPUT: Recorded AC50 of C[C@@H]1O[C@@H](O[C@@H]2C=C3CC[C@@H]4[C@H](CC[C@]5(C)[C@@H](c6ccc(=O)oc6)CC[C@]45O)[C@@]3(C)CC2)[C@H](O)[C@H](O)[C@H]1O , please.
OUTPUT: > 30 µM

INPUT: Recorded AC50 of CC(C[N+](C)(C)C)OC(N)=O (stereo not drawn) , please.
OUTPUT: > 10 µM

INPUT: Recorded AC50 of CC(C)Cn1cnc2c(N)nc3ccccc3c21 , please.
OUTPUT: > 10 µM

INPUT: Recorded AC50 of CCCSc1ccc2nc(NC(=O)OC)[nH]c2c1 , please.
OUTPUT: > 10 µM

INPUT: Recorded AC50 of Clc1ccc(CCCOCCCN2CCCCC2)cc1 , please.
OUTPUT: 6 µM

INPUT: Recorded AC50 of C[C@H]1CNCCc2ccc(Cl)cc21 , please.
OUTPUT: 3.6 µM

INPUT: Recorded AC50 of CN(C)CCC(c1ccc(Cl)cc1)c1ccccn1 (stereo not drawn) , please.
OUTPUT: > 10 µM

INPUT: Recorded AC50 of CN1C(C(=O)Nc2ccccn2)=C(O)c2sc(Cl)cc2S1(=O)=O , please.
OUTPUT: > 10 µM

INPUT: Recorded AC50 of COc1ccccc1N1CCN(CC(O)COc2cccc3ccccc23)CC1 (stereo not drawn) , please.
OUTPUT: 0.2 µM

INPUT: Recorded AC50 of CCCN(CCC)C(=O)C(CCC(=O)O)NC(=O)c1ccccc1 (stereo not drawn) [PROGLUMIDE] , please.
OUTPUT: > 30 µM

INPUT: Recorded AC50 of CC1=C(C(=O)O)N2C(=O)[C@@H](NC(=O)[C@H](N)c3ccccc3)[C@H]2SC1 [CEPHALEXIN ANHYDROUS] , please.
OUTPUT: > 10 µM

INPUT: Recorded AC50 of c1cnc(N2CCN(Cc3ccc4c(c3)OCO4)CC2)nc1 , please.
OUTPUT: 0.96 µM

INPUT: Recorded AC50 of CC1(C)O[C@@H]2C[C@H]3[C@@H]4CCC5=CC(=O)C=C[C@]5(C)[C@H]4[C@@H](O)C[C@]3(C)[C@]2(C(=O)CO)O1 [DESONIDE] , please.
OUTPUT: > 10 µM

INPUT: Recorded AC50 of C1CCC(C(CC2CCCCN2)C2CCCCC2)CC1 (stereo not drawn) , please.
OUTPUT: 16.5 µM

INPUT: Recorded AC50 of Fc1ccc(C(c2ccccc2)(c2ccccc2F)n2ccnc2)cc1 (stereo not drawn) , please.
OUTPUT: > 30 µM

----------
# System: Progesterone receptor (Homo sapiens, UniProt P06401); note: assay procedure not described here
# Sequence (P06401 whole entry): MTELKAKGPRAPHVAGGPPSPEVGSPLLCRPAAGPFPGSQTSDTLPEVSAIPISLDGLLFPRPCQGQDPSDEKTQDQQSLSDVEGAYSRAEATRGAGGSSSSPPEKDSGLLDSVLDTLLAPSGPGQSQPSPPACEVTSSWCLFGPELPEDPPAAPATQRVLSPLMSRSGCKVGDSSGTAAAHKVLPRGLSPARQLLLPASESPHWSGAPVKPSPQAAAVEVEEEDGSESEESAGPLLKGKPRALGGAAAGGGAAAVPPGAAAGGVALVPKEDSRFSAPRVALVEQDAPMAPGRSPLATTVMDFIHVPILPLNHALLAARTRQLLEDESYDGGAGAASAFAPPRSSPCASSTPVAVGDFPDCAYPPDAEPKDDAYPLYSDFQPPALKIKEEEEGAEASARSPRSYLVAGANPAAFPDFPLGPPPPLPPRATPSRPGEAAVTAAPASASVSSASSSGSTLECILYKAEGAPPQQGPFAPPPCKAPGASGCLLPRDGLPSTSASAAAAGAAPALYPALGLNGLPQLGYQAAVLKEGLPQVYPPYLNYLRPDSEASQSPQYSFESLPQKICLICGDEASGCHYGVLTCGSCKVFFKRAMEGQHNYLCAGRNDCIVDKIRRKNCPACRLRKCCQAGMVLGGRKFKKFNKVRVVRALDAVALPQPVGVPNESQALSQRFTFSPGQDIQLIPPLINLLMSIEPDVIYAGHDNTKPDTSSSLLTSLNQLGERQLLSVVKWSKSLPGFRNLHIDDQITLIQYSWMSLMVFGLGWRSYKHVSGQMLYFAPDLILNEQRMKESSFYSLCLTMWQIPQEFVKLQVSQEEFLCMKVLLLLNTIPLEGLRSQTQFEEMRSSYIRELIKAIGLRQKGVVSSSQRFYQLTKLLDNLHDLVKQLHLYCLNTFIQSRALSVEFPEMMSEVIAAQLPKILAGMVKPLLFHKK
# Format: functional
Property Label: AC50

INPUT: Recorded AC50 of COc1ccc2c3c1O[C@H]1C(=O)CC[C@@]4(O)[C@@H](C2)N(C)CC[C@]314 , please.
OUTPUT: > 30 µM

INPUT: Recorded AC50 of CCOC(=O)[N-]c1cn(N2CCOCC2)n[o+]1 , please.
OUTPUT: > 30 µM

INPUT: Recorded AC50 of C[C@H]1CNCCc2ccc(Cl)cc21 , please.
OUTPUT: > 30 µM

INPUT: Recorded AC50 of CCN(CC)C(=O)N[C@H]1C[C@@H]2c3cccc4[nH]cc(c34)C[C@H]2N(C)C1 [TERGURIDE] , please.
OUTPUT: > 30 µM

INPUT: Recorded AC50 of CC(=O)Nc1ccc(O)cc1 , please.
OUTPUT: > 30 µM

INPUT: Recorded AC50 of NCC[C@H](O)C(=O)N[C@@H]1C[C@H](N)[C@@H](O[C@H]2O[C@H](CN)[C@@H](O)[C@H](O)[C@H]2O)[C@H](O)[C@H]1O[C@H]1O[C@H](CO)[C@@H](O)[C@H](N)[C@H]1O , please.
OUTPUT: > 10 µM

INPUT: Recorded AC50 of O=C(O)C1=C(CSc2nnnn2CS(=O)(=O)O)CS[C@@H]2[C@H](NC(=O)[C@H](O)c3ccccc3)C(=O)N12 , please.
OUTPUT: > 30 µM

INPUT: Recorded AC50 of Nc1nc(/C(=C/CC(=O)O)C(=O)N[C@@H]2C(=O)N3C(C(=O)O)=CCS[C@H]23)cs1 , please.
OUTPUT: > 30 µM

INPUT: Recorded AC50 of OC(CNCC(O)C1CCc2cc(F)ccc2O1)C1CCc2cc(F)ccc2O1 (configuration not stated) , please.
OUTPUT: > 30 µM

INPUT: Recorded AC50 of Nc1nc(N)nc(-c2cc(Cl)ccc2Cl)n1 , please.
OUTPUT: > 30 µM

INPUT: Recorded AC50 of Brc1c(NC2=NCCN2)ccc2nccnc12 , please.
OUTPUT: > 30 µM

INPUT: Recorded AC50 of CCCSc1ccc2nc(NC(=O)OC)[nH]c2c1 , please.
OUTPUT: > 10 µM

INPUT: Recorded AC50 of C1CCC(C(CC2CCCCN2)C2CCCCC2)CC1 (configuration not stated) , please.
OUTPUT: > 30 µM

INPUT: Recorded AC50 of CCCCN1C[C@H](O)[C@@H](O)[C@H](O)[C@H]1CO , please.
OUTPUT: > 30 µM

INPUT: Recorded AC50 of C[C@H](CSC(=O)c1ccccc1)C(=O)N1C[C@@H](Sc2ccccc2)C[C@H]1C(=O)O , please.
OUTPUT: > 10 µM

INPUT: Recorded AC50 of O=C(NCCN1CCOCC1)c1ccc(Cl)cc1 [MOCLOBEMIDE] , please.
OUTPUT: > 10 µM

INPUT: Recorded AC50 of CC=CC(=O)N(CC)c1ccccc1C , please.
OUTPUT: > 10 µM

INPUT: Recorded AC50 of CC[C@H]1[C@@H](O)[C@@H]2[C@H](CC[C@]3(C)[C@@H]([C@H](C)CCC(=O)O)CC[C@@H]23)[C@@]2(C)CC[C@@H](O)C[C@@H]12 , please.
OUTPUT: > 30 µM

INPUT: Recorded AC50 of O=C(O)[C@H](CC(=O)N1C[C@H]2CCCC[C@H]2C1)Cc1ccccc1 [MITIGLINIDE] , please.
OUTPUT: > 10 µM

INPUT: Recorded AC50 of CC(=O)O[C@H]1CC[C@@]2(C)C(=CC[C@@H]3[C@@H]2CC[C@]2(C)C(c4cccnc4)=CC[C@@H]32)C1 [ABIRATERONE ACETATE] , please.
OUTPUT: > 30 µM

INPUT: Recorded AC50 of O=C(NCCNCC(O)COc1ccc(O)cc1)N1CCOCC1 (configuration not stated) , please.
OUTPUT: > 30 µM

INPUT: Recorded AC50 of COc1ccccc1N1CCN(CC(O)COc2cccc3ccccc23)CC1 (configuration not stated) , please.
OUTPUT: > 30 µM
